Cited source: patent US20240391961A1

target.under.test: T1, 14-3-3ζ nhpSer58 with a FLAG tag at its N-terminus (Homo sapiens (Human), UniProt P63104 1-245)
T1 sequence: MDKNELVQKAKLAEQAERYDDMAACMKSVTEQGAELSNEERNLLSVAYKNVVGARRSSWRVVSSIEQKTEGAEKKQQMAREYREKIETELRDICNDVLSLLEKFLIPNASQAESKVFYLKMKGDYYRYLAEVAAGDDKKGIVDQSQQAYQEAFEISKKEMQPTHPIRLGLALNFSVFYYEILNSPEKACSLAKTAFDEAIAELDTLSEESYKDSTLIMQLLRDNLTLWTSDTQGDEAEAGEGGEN
measured.quantity: FC (fold)
// units = fold; emit number, no label

Q. Fill in reported FC for this entry: 14-3-3 protein gamma [OS = Homo sapiens] (other, UniProt P61981 1-247, looked up) MVDREQLVQKARLAEQAERYDDMAAAMKNVTELNEPLSNEERNLLSVAYKNVVGARRSSWRVISSIEQKTSADGNEKKIEMVRAYREKIEKELEAVCQDVLSLLDNYLIKNCSETQYESKVFYLKMKGDYYRYLAEVATGEKRATVVESSEKAYSEAHEISKEHMQPTHPIRLGLALNYSVFYYEIQNAPEQACHLAKTAFDDAIAELDTLNEDSYKDSTLIMQLLRDNLTLWTSDQQDDDGGEGNN
A. 0.0531
